Task for the reader: assign each of the following molecules its reported MIC.
Tested on: carbapenemase producing K. pneumoniae
Test: MIC by broth micro-dilution (CLSI), carbapenemase producing K. pneumoniae
Type: cell-based, Klebsiella pneumoniae
Settings: Klebsiella pneumoniae, ATCCBAA1705, KPC-2 K. pneumoniae ATCC BAA-1705; read-out: MIC
Could you give me the number in µg/mL? Just the number is fine.

Looking up CNCC(=O)N[C@@H](C)[C@H]1C(=O)N2C(C(=O)O)=C(S[C@H]3CN[C@H](C(=O)N4CC[C@@H](N)C4)C3)[C@H](C)[C@H]12 [Example 95] , I see its MIC listed as 2

Noted for CNCC(=O)N[C@H](C)[C@H]1C(=O)N2C(C(=O)O)=C(S[C@@H]3CN[C@H](C(=O)N4CC[C@H](N)C[C@@H]4C)C3)[C@H](C)[C@H]12 [Example 264] : its MIC reads 4

* * *

Assign MIC to each entry below.
Tested on: carbapenemase producing K. pneumoniae
Assay: MIC by broth micro-dilution (CLSI), carbapenemase producing K. pneumoniae
Assay type: cell-based, Klebsiella pneumoniae
Conditions: Klebsiella pneumoniae, ATCCBAA1705, KPC-2 K. pneumoniae ATCC BAA-1705; read-out: MIC
Give the value, in units of µg/mL, as a plain number.

The compound C[C@@H](NC(=O)Cn1cncn1)[C@H]1C(=O)N2C(C(=O)O)=C(S[C@@H]3CN[C@H](C(=O)N(C)C)C3)[C@H](C)[C@H]12 , tested on carbapenemase producing K. pneumoniae, showed MIC of 4

Here C[C@@H](NC(=O)Cn1cnnn1)[C@H]1C(=O)N2C(C(=O)O)=C(S[C@@H]3CN[C@H](C(=O)N4CCO[C@H]5CNC[C@H]54)C3)[C@H](C)[C@H]12 was tested on carbapenemase producing K. pneumoniae, and its MIC came to 2

Observed MIC on carbapenemase producing K. pneumoniae, entry C[C@@H](NC(=O)[C@@H](N)Cn1cnnn1)[C@H]1C(=O)N2C(C(=O)O)=C(S[C@@H]3CN[C@H](C(=O)N(C)C)C3)[C@H](C)[C@H]12 , equals 16

MIC value, target or system carbapenemase producing K. pneumoniae, for C[C@@H](NC(=O)Cn1cnnn1)[C@H]1C(=O)N2C(C(=O)O)=C(S[C@@H]3CN[C@H](C(=O)N4CCC5(CCN5)CC4)C3)[C@H](C)[C@H]12 : 2

Lab note: compound C[C@@H](NC(=O)C(F)F)[C@H]1C(=O)N2C(C(=O)O)=C(S[C@@H]3CN[C@H](C(=O)N4CCNCC4)C3)[C@H](C)[C@H]12 tested on carbapenemase producing K. pneumoniae; recorded MIC was 4

Entry C[C@@H](NS(=O)(=O)CC(F)(F)F)[C@H]1C(=O)N2C(C(=O)O)=C(S[C@@H]3CN[C@H](C(=O)N(C)C)C3)[C@H](C)[C@H]12 : MIC on carbapenemase producing K. pneumoniae = 8

# MIC measured on carbapenemase producing K. pneumoniae for item C[C@@H](NC(=O)Cn1cnnn1)[C@H]1C(=O)N2C(C(=O)O)=C(S[C@@H]3CN[C@H](C(=O)N4C[C@H](N)C[C@H]4C(=O)N4CC[C@@H](N)C4)C3)[C@H](C)[C@H]12 = 4

Field MIC (carbapenemase producing K. pneumoniae), entry C[C@@H]1C[C@H](N)CN1C(=O)[C@@H]1C[C@H](SC2=C(C(=O)O)N3C(=O)[C@H]([C@@H](C)NC(=O)Cn4cnnn4)[C@H]3[C@H]2C)CN1 : 1

Item C[C@@H](NC(=O)C(F)F)[C@H]1C(=O)N2C(C(=O)O)=C(SCc3ccncc3)[C@H](C)[C@H]12 was tested on carbapenemase producing K. pneumoniae; the reported MIC is 64

Bench note, carbapenemase producing K. pneumoniae: entry C[C@@H](NC(=O)Cn1cnnn1)[C@H]1C(=O)N2C(C(=O)O)=C(S[C@@H]3CN[C@H](C(=O)N4CC(N)C(F)C4)C3)[C@H](C)[C@H]12 (single isomer, unassigned) , its MIC = 1

# MIC measured on carbapenemase producing K. pneumoniae for item C[C@@H](NC(=O)Cn1cnnn1)[C@H]1C(=O)N2C(C(=O)O)=C(S[C@@H]3CN[C@H](C(=O)N4CC(N5CCNCC5)C4)C3)[C@H](C)[C@H]12 = 2
